Measured EC50, total Abeta plaque intensity, human iPSC-derived microglia plaque assay (FIG. 24B), listed per entry.
target.or.system: T1, human TREM2 on cells (human, UniProt Q9NZC2 19-230)
T1 sequence: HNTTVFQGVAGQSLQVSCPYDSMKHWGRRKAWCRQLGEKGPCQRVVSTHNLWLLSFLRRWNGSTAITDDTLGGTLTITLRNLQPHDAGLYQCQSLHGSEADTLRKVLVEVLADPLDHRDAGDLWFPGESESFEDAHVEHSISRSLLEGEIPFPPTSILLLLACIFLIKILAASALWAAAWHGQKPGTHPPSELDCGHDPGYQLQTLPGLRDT
procedure.summary: cell-based or functional assay
# value in nM; strip the unit string

Use these answered entries as a reference point.
[
  {
    "binder": "h3.10C2.v1 hIgG1 N297G (antibody, V domains shown, Human IgG1 N297G; also called h3.10C2.v1.huIgG1.N297G) VH: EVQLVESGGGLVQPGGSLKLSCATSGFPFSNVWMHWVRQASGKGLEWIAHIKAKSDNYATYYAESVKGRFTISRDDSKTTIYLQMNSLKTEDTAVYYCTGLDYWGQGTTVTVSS VL: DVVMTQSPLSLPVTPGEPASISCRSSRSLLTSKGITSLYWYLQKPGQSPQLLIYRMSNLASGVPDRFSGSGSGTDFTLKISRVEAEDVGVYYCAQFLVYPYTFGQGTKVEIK",
    "scale.unit": "nM",
    "reported.measurement": 130
  },
  {
    "binder": "hPara.09.v2 Q100P/V104L (antibody, human IgG1, V domains shown) VH: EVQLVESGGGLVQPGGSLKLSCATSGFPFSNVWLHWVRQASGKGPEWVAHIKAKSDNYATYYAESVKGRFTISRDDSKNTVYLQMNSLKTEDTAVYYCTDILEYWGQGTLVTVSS VL: DVVMTQSPLSLPVTPGEPASISCRSSRSLLTSKGITSLYWYLQKPGQSPQLLIYRMSNLASGIPDRFSGSGSGTDFTLKISRVEAEDVGVYYCAQFLVYPYTFGPGTKLEIK",
    "scale.unit": "nM",
    "reported.measurement": 770
  },
  {
    "binder": "hPara.09.v2 Q100P (antibody, V domains shown, Human IgG1 N297G in the cell assays; also called huPara.09.v2 Q100P; hPara.09 Q100P) VH: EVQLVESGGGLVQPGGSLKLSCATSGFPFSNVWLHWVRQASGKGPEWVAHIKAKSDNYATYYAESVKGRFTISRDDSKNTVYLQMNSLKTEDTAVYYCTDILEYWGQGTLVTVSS VL: DVVMTQSPLSLPVTPGEPASISCRSSRSLLTSKGITSLYWYLQKPGQSPQLLIYRMSNLASGIPDRFSGSGSGTDFTLKISRVEAEDVGVYYCAQFLVYPYTFGPGTKVEIK",
    "scale.unit": "nM",
    "reported.measurement": 120
  }
]

// moving on: another record for EC50, total Abeta plaque intensity, human iPSC-derived microglia plaque assay (FIG. 24B)
// EC50, total Abeta plaque intensity, human iPSC-derived microglia plaque assay (FIG. 24B) value for hPara.09.v2 hIgG1 N297G (antibody, V domains shown, also called hPara.09.H5.hIgG1.N297G) VH: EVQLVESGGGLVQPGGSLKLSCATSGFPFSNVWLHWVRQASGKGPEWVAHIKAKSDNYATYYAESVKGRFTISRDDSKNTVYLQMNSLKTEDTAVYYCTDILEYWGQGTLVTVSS VL: DVVMTQSPLSLPVTPGEPASISCRSSRSLLTSKGITSLYWYLQKPGQSPQLLIYRMSNLASGIPDRFSGSGSGTDFTLKISRVEAEDVGVYYCAQFLVYPYTFGQGTKVEIKR : 330
